Biological target: CYP26B1 (Homo sapiens (Human))
Sequence (Q9NR63 whole entry, species assumed): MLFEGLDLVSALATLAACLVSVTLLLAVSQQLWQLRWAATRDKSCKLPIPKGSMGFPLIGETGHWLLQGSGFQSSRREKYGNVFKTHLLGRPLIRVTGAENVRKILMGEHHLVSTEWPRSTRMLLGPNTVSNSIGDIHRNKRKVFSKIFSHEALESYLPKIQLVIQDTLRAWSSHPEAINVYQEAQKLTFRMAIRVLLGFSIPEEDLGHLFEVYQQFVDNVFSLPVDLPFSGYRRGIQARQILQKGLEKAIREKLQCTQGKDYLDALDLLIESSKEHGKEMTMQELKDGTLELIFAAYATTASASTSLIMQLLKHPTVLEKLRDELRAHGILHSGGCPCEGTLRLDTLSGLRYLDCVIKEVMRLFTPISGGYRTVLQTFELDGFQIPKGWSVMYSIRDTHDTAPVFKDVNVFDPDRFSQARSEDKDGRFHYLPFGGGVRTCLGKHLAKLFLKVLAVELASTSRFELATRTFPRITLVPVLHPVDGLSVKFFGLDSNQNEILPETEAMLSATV
Assay: Cell-based inhibitor assay, [H]-RA metabolism in CYP26B1 stably transfected HeLa cells
Conditions: CYP26B1 transfected HeLa cells, 3 hours at 37° C., inhibition of all trans-RA metabolism; read-out: IC50 26B1
pIC50: −log10 of the molar value.
Output Satisfied for pIC50 not less than 5; output Not satisfied otherwise.

Query :: Has "CN(C(=O)c1ccc2c(c1)C(C)(C)CCC2(C)C)c1ccc(CC(=O)O)cc1" a recorded pIC50 greater than or equal to 5?
Result :: Not satisfied

Query :: Determine whether measured pIC50 meets or exceeds 5 for "CC1(C)CCC(C)(C)c2cc(S(=O)(=O)Nc3ccc(C(=O)O)cc3)ccc21"
Result :: Not satisfied

Query :: Kindly determine if pIC50 recorded for "CC(C)c1cc2c(cc1C(=O)Nc1ccc(CC(=O)O)cc1)C(C)(C)CCC2(C)C" is above or exactly 5.
Result :: Not satisfied

Query :: Form field: pIC50 at least 5? Entry: "Cc1cc2c(c(C)c1C(=O)Nc1ccc(CC(=O)O)cc1)C(C)(C)CCC2(C)C"
Result :: Satisfied

Query :: Confirm if pIC50 reported for the compound "CC1(C)CCC(C)(C)c2cc(S(=O)(=O)Nc3ccc(CC(=O)O)c(F)c3)ccc21" is 5 or above.
Result :: Not satisfied

Query :: Could you tell me if the measured pIC50 of "CCC(CC)(C(=O)O)c1ccc(NS(=O)(=O)c2ccc3c(c2)C(C)(C)CCC3(C)C)cc1" reaches 5 or more?
Result :: Satisfied

Query :: Please indicate if the recorded pIC50 for "CC(C)c1cc2c(cc1S(=O)(=O)Nc1ccc(CC(=O)O)cc1)C(C)(C)CCC2(C)C" meets or exceeds 5.
Result :: Not satisfied

Query :: Is pIC50 for "CC1(C)CCC(C)(C)c2cc(NC(=O)c3ccc(CC(=O)O)cc3)ccc21" at or above 5?
Result :: Not satisfied

====

Can you tell me log10 of IC50 for the items I'm about to list?
Molecular target: CYP26A1 (Homo sapiens (Human))
Sequence (O43174 whole entry, species assumed): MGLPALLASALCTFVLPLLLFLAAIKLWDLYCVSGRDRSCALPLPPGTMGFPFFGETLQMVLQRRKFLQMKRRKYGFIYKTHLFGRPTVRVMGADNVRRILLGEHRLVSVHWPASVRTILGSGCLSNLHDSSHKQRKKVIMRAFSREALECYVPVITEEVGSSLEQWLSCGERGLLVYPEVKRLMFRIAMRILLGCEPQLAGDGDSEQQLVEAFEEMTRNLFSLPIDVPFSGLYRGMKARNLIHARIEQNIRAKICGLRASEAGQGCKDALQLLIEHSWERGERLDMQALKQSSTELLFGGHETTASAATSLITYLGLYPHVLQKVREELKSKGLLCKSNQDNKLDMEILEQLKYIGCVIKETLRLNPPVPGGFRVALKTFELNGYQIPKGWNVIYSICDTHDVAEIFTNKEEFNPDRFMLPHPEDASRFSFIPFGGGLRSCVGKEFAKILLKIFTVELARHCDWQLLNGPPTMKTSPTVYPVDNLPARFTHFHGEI
Quick note: numbers are log10 of IC50, with µM as the unit.

// log10 of IC50 value for Cc1cc2c(cc1S(=O)(=O)Nc1ccc(C(C(=O)O)C(C)C)cc1)C(C)(C)CCC2(C)C (stereo not shown) : -0.13

So, "CC1(C)CCC(C)(C)c2cc(S(=O)(=O)Nc3ccc(CC(=O)O)cc3)ccc21" ? Its log10 of IC50 was 0.06

So, "CC1(C)CCC(C)(C)c2cc(S(=O)(=O)Nc3ccc(CC(=O)O)c(F)c3)ccc21" ? Its log10 of IC50 was 0.34

The measured log10 of IC50 associated with "Cc1cc(S(=O)(=O)Nc2ccc(CC(=O)O)cc2)cc2c1OC(C)(C)CC2(C)C" reads 0.28

The molecule identified as "CC1(C)CCC(C)(C)c2cc(C(=O)Nc3ccc(CC(=O)O)cc3)ccc21" registered its log10 of IC50 at 0.75

Field log10 of IC50 (entry C=C(Cc1ccc(NS(=O)(=O)c2ccc3c(c2)C(C)(C)CCC3(C)C)cc1)OC [Cmpd 04A] ) reads 1.15

Entry under test: C=C(Cc1ccc(NS(=O)(=O)c2ccc3c(c2)C(C)(C)CCC3(C)C)cc1F)OC [Cmpd 09A] . Its log10 of IC50 was 1.91

The molecule listed as "CC1(C)CCC(C)(C)c2cc(NC(=O)c3ccc(CC(=O)O)cc3)ccc21" shows log10 of IC50 equal to 0.50

What the record says about C=C(Cc1ccc(NS(=O)(=O)c2cc3c(cc2Br)C(C)(C)CCC3(C)C)cc1)OC [Cmpd 04B] : log10 of IC50 is 0.92

GET /value?item= "CCC(CC)(C(=O)O)c1ccc(NS(=O)(=O)c2ccc3c(c2)C(C)(C)CCC3(C)C)cc1" &field=log10 of IC50 returns 1.59

Measured log10 of IC50, "Cc1cc2c(cc1S(=O)(=O)Nc1ccc(C(=O)O)cc1)C(C)(C)CCC2(C)C" : 1.45

Where do the numbers come from? From patent US11364220B2.
